# experiment: Raltegravir pharmacokinetics in cervicovaginal fluid
# conditionsUsed: female, human, in vivo, 400 mg, C12, steady state; CVF; HIV-infected postmenopausal women (n=5); median (IQR)
resultType: concentration at 12 h
Remember to quote the unit after the number.

Prompt: Indicate the recorded concentration at 12 h value for this compound: Cc1nnc(C(=O)NC(C)(C)c2nc(C(=O)NCc3ccc(F)cc3)c(O)c(=O)n2C)o1 [raltegravir]
Completion: 958 ng/mL

====

# experiment: Raltegravir pharmacokinetics in cervicovaginal fluid
# conditionsUsed: female, human, in vivo, 400 mg, Cmax, steady state; CVF; HIV-infected premenopausal women (n=6); median (IQR)
resultType: Cmax (ng/mL)
Numeric only. Scale: ng/mL

Prompt: Indicate the recorded Cmax value for this compound: Cc1nnc(C(=O)NC(C)(C)c2nc(C(=O)NCc3ccc(F)cc3)c(O)c(=O)n2C)o1
Completion: 1920

====

# experiment: Raltegravir pharmacokinetics in blood plasma
# conditionsUsed: female, human, in vivo, 400 mg, C12, first dose; BP; HIV-negative premenopausal women (n=7); median (IQR)
resultType: concentration at 12 h (ng/mL)
Numeric only. Scale: ng/mL

Prompt: Indicate the recorded concentration at 12 h value for this compound: Cc1nnc(C(=O)NC(C)(C)c2nc(C(=O)NCc3ccc(F)cc3)c(O)c(=O)n2C)o1
Completion: 54

====

# experiment: Raltegravir pharmacokinetics in blood plasma
# conditionsUsed: female, human, in vivo, 400 mg, AUC 0-12h, steady state; BP; HIV-negative premenopausal women (n=7); median (IQR)
resultType: AUC(0-t) (ng·h/mL)
Numeric only. Scale: ng·h/mL

Prompt: Indicate the recorded AUC(0-t) value for this molecule: Cc1nnc(C(=O)NC(C)(C)c2nc(C(=O)NCc3ccc(F)cc3)c(O)c(=O)n2C)o1
Completion: 8440

====

# experiment: Raltegravir pharmacokinetics in blood plasma
# conditionsUsed: female, human, in vivo, 400 mg, C12, steady state; BP; HIV-infected premenopausal women (n=6); median (IQR)
resultType: concentration at 12 h (ng/mL)
Numeric only. Scale: ng/mL

Prompt: Indicate the recorded concentration at 12 h value for this compound: Cc1nnc(C(=O)NC(C)(C)c2nc(C(=O)NCc3ccc(F)cc3)c(O)c(=O)n2C)o1
Completion: 23

====

# experiment: Raltegravir pharmacokinetics in cervicovaginal fluid
# conditionsUsed: female, human, in vivo, 400 mg, Cmax, first dose; CVF; HIV-infected postmenopausal women (n=5); median (IQR)
resultType: Cmax (ng/mL)
Numeric only. Scale: ng/mL

Prompt: Indicate the recorded Cmax value for this molecule: Cc1nnc(C(=O)NC(C)(C)c2nc(C(=O)NCc3ccc(F)cc3)c(O)c(=O)n2C)o1
Completion: 4780

====

# experiment: Raltegravir pharmacokinetics in blood plasma
# conditionsUsed: female, human, in vivo, 400 mg, AUC 0-12h, first dose; BP; HIV-negative premenopausal women (n=7); median (IQR)
resultType: AUC(0-t) (ng·h/mL)
Numeric only. Scale: ng·h/mL

Prompt: Indicate the recorded AUC(0-t) value for this compound: Cc1nnc(C(=O)NC(C)(C)c2nc(C(=O)NCc3ccc(F)cc3)c(O)c(=O)n2C)o1
Completion: 3100

====

# experiment: Raltegravir pharmacokinetics in cervicovaginal fluid
# conditionsUsed: female, human, in vivo, 400 mg, C12, first dose; CVF; HIV-infected postmenopausal women (n=5); median (IQR)
resultType: concentration at 12 h (ng/mL)
Numeric only. Scale: ng/mL

Prompt: Indicate the recorded concentration at 12 h value for this compound: Cc1nnc(C(=O)NC(C)(C)c2nc(C(=O)NCc3ccc(F)cc3)c(O)c(=O)n2C)o1
Completion: 1290

====

# experiment: Raltegravir pharmacokinetics in blood plasma
# conditionsUsed: female, human, in vivo, 400 mg, C12, first dose; BP; HIV-infected postmenopausal women (n=5); median (IQR)
resultType: concentration at 12 h (ng/mL)
Numeric only. Scale: ng/mL

Prompt: Indicate the recorded concentration at 12 h value for this compound: Cc1nnc(C(=O)NC(C)(C)c2nc(C(=O)NCc3ccc(F)cc3)c(O)c(=O)n2C)o1
Completion: 222

====

# experiment: Raltegravir pharmacokinetics in cervicovaginal fluid
# conditionsUsed: female, human, in vivo, 400 mg, AUC 0-12h, first dose; CVF; HIV-negative premenopausal women (n=7); median (IQR); BLD imputed 0.1 ng/ml
resultType: AUC(0-t) (ng·h/mL)
Numeric only. Scale: ng·h/mL

Prompt: Indicate the recorded AUC(0-t) value for this compound: Cc1nnc(C(=O)NC(C)(C)c2nc(C(=O)NCc3ccc(F)cc3)c(O)c(=O)n2C)o1
Completion: 1720

====

# experiment: Raltegravir pharmacokinetics in blood plasma
# conditionsUsed: female, human, in vivo, 400 mg, Cmax, steady state; BP; HIV-infected postmenopausal women (n=5); median (IQR)
resultType: Cmax
Remember to quote the unit after the number.

Prompt: Indicate the recorded Cmax value for this compound: Cc1nnc(C(=O)NC(C)(C)c2nc(C(=O)NCc3ccc(F)cc3)c(O)c(=O)n2C)o1 [raltegravir]
Completion: 1170 ng/mL

====

# experiment: Raltegravir pharmacokinetics in cervicovaginal fluid
# conditionsUsed: female, human, in vivo, 400 mg, AUC 0-12h, steady state; CVF; HIV-infected postmenopausal women (n=5); median (IQR)
resultType: AUC(0-t) (ng·h/mL)
Numeric only. Scale: ng·h/mL

Prompt: Indicate the recorded AUC(0-t) value for this compound: Cc1nnc(C(=O)NC(C)(C)c2nc(C(=O)NCc3ccc(F)cc3)c(O)c(=O)n2C)o1
Completion: 9570

====

# experiment: Raltegravir pharmacokinetics in blood plasma
# conditionsUsed: female, human, in vivo, 400 mg, Cmax, steady state; BP; HIV-infected premenopausal women (n=6); median (IQR)
resultType: Cmax (ng/mL)
Numeric only. Scale: ng/mL

Prompt: Indicate the recorded Cmax value for this compound: Cc1nnc(C(=O)NC(C)(C)c2nc(C(=O)NCc3ccc(F)cc3)c(O)c(=O)n2C)o1 [raltegravir]
Completion: 1980

====

# experiment: Raltegravir pharmacokinetics in blood plasma
# conditionsUsed: female, human, in vivo, 400 mg, AUC 0-12h, first dose; BP; HIV-infected postmenopausal women (n=5); median (IQR)
resultType: AUC(0-t)

Prompt: Indicate the recorded AUC(0-t) value for this molecule: Cc1nnc(C(=O)NC(C)(C)c2nc(C(=O)NCc3ccc(F)cc3)c(O)c(=O)n2C)o1 [raltegravir]
Completion: 4240 ng·h/mL

====

# experiment: Raltegravir pharmacokinetics in blood plasma
# conditionsUsed: female, human, in vivo, 400 mg, AUC 0-12h, steady state; BP; HIV-infected premenopausal women (n=6); median (IQR)
resultType: AUC(0-t)
Remember to quote the unit after the number.

Prompt: Indicate the recorded AUC(0-t) value for this compound: Cc1nnc(C(=O)NC(C)(C)c2nc(C(=O)NCc3ccc(F)cc3)c(O)c(=O)n2C)o1
Completion: 5760 ng·h/mL

====

# experiment: Raltegravir pharmacokinetics in cervicovaginal fluid
# conditionsUsed: female, human, in vivo, 400 mg, AUC 0-12h, first dose; CVF; HIV-infected postmenopausal women (n=5); median (IQR)
resultType: AUC(0-t) (ng·h/mL)
Numeric only. Scale: ng·h/mL

Prompt: Indicate the recorded AUC(0-t) value for this compound: Cc1nnc(C(=O)NC(C)(C)c2nc(C(=O)NCc3ccc(F)cc3)c(O)c(=O)n2C)o1 [raltegravir]
Completion: 13800

====

# experiment: Raltegravir pharmacokinetics in cervicovaginal fluid
# conditionsUsed: female, human, in vivo, 400 mg, C12, steady state; CVF; HIV-infected premenopausal women (n=6); median (IQR)
resultType: concentration at 12 h (ng/mL)
Numeric only. Scale: ng/mL

Prompt: Indicate the recorded concentration at 12 h value for this molecule: Cc1nnc(C(=O)NC(C)(C)c2nc(C(=O)NCc3ccc(F)cc3)c(O)c(=O)n2C)o1
Completion: 447

====

# experiment: Raltegravir pharmacokinetics in blood plasma
# conditionsUsed: female, human, in vivo, 400 mg, Cmax, first dose; BP; HIV-negative premenopausal women (n=7); median (IQR)
resultType: Cmax (ng/mL)
Numeric only. Scale: ng/mL

Prompt: Indicate the recorded Cmax value for this compound: Cc1nnc(C(=O)NC(C)(C)c2nc(C(=O)NCc3ccc(F)cc3)c(O)c(=O)n2C)o1
Completion: 790
